Test system: MALME-3M melanoma
Test: NCI tumour cell line growth inhibition, 48 h; in the data active = GI50 below about 0.43 µM; inactive = the rest
Bench note: report the call from Y (active), N (inactive)

Worked examples follow.
1) O=C(Nc1cccnc1)c1cccc([N+](=O)[O-])c1	N
2) c1ccc2c(Nc3ccc(Oc4ccc(Nc5c6ccccc6nc6ccccc56)cc4)cc3)c3ccccc3nc2c1	N
3) CO/N=C(\COc1ccc2c(c1)oc(=O)c1cc(OC)ccc12)c1ccc(F)cc1	N
4) COc1cc2c3c(n(CCCCNC(=O)OCC4c5ccccc5-c5ccccc54)c(=O)c2cc1OC)-c1cc2c(cc1C3=O)OCO2	N
5) Cc1ccc(NSc2ccccc2[N+](=O)[O-])cc1	N
6) COc1cc(OC)c2cc(C(=O)O)c(=O)oc2c1	N
7) C=C(C)[C@@H]1CC[C@]2(C(=O)O)CC[C@]3(C)[C@H](CC[C@@H]4[C@@]5(C)C[C@@H](CC#Cc6ccc(Br)cc6)C(=O)C(C)(C)[C@@H]5CC[C@]43C)[C@@H]12	N
8) COc1cc(-n2cc(-c3ccc(F)cc3)[nH]c2=S)cc(OC)c1OC	N

Lookup: # outcome recorded in this test, key = N#Cc1c(NC(=O)c2cccc3ccccc23)sc2c1CCCC2
Found: Y

Lookup: Hi, sorry to bother you, what did the test record for Cc1cc(O)ccc1O ?
Found: N

Lookup: Short answer needed: outcome of this test for CS(=O)(=O)Nc1cccc(-c2ccc3c(NC(=O)C4CC4)n[nH]c3c2)c1 ?
Found: N

Lookup: Hi, sorry to bother you, what did the test record for COc1cc(Nc2ncc3c(C)nc(-c4cccc(Oc5ccccc5)c4)n3n2)cc(OC)c1OC ?
Found: N

Lookup: Test call for this compound, please: CC1(C)N=C(N)N=C(N)N1c1ccc(OCC(=O)N2CCOCC2)c(Cl)c1
Found: N

###

Each entry below carries its recorded GI50.
Tested on: DU-145 prostate
Assay: NCI tumour cell line growth inhibition, 48 h

Example entries begin here.
1. COc1cc(C2CC(c3ccc(Nc4ccnc5cc(Cl)ccc45)cc3)=NN2C=O)cc(OC)c1OC (stereo not given)	6630 nM
2. CCCCCCCCCCCCCCCCOC(=O)c1c(C)[nH]c(/C=C2\N=C(c3ccc[nH]3)C=C2OC)c1C	406 nM
3. O=C1Nc2ccccc2/C1=C/c1cn(C(=O)c2c(Cl)cccc2Cl)c2ccccc12	2720 nM
4. COc1ccc(Cn2cnc3cc(C(=O)Nc4cccc5ccccc45)ccc32)c(OC)c1	43.9 nM
5. O=C1c2cccc3cccc(c23)C(=O)N1CCCCN1CCN(CCCCOc2ccc(-c3nc4ccc(N5CCOCC5)cc4[nH]3)cc2)CC1	> 100000 nM
6. CCN(CC)CCCNc1nc2ccccc2c2c(=O)c3cc(Cl)ccc3sc12	2010 nM

Lookup: // GI50 lookup, key: O=c1oc2ccc(F)cc2c(=O)n1-c1ccc(Cl)cc1F
Found: 1100 nM

Lookup: Requested read-out: GI50. Entry: COc1cc(C(=O)N2CCN(c3ccccc3OC)CC2)c(N)cc1OCc1ccccc1
Found: 42000 nM

Lookup: Dear colleague, I am looking for the recorded GI50 of the following compound: COc1cc(OC)c2cc(C(=O)O)c(=O)oc2c1
Found: > 100000 nM

###

Listed next: entries and their corresponding TGI.
Tested on: SF-539 CNS
Experiment: NCI tumour cell line growth inhibition, 48 h

Here's what some known entries look like.
1) Cc1ccc(-c2nc3c(C(=O)NCCN(C)C)cccc3[nH]2)cc1	23 µM
2) O=C(O)C(Cc1cnc[nH]1)N=Cc1nc(-c2ccccc2)oc1O (stereo unspecified)	> 100 µM

Lookup: Could you share which TGI value was measured for CCN(CC)CCC(=O)N1CCc2c([nH]c3ccccc23)C1c1cccnc1 (stereo unspecified) ?
Found: > 100 µM

Lookup: Which TGI reading was recorded for the molecule CCOC(=O)N[C@H]1CCc2cc(O)c(OC)c(OC)c2-c2ccc(SC)c(=O)cc21 ?
Found: 0.044 µM

Lookup: Fill blank: measured TGI of the molecule Cc1nc(N)c(N2CCN(Cc3ccccc3)CC2)c(=O)[nH]1 is ____.
Found: > 100 µM

Lookup: # get_value(readout='TGI', item= O=C(O)c1cncc(C(=O)O)c1 )
Found: > 100 µM

###

System: UACC-62 melanoma
Assay: NCI tumour cell line growth inhibition, 48 h
measure: TGI

Worked set:
1) O=C1SC(c2ccccc2)(c2ccccc2)c2ccccc21	> 100 µM
2) Cc1ccc(/C=C/C(=O)c2ccc(N)cc2)c(C)c1	7.16 µM
3) CC1C=CC(C)C2(O)C(=O)NC(O)C12 (stereo not given)	> 100 µM
4) COc1ccc2c[n+](C)c3c4cc(OC)c(OC)cc4ccc3c2c1	41.3 µM
5) CNc1cccnc1/C=N/NC(N)=S	3.07 µM
6) OCCCCn1cc(Cn2ncc3c(SCc4ccccc4)ncnc32)nn1	> 100 µM
7) CC(C)=CCc1ccc(O)c(=O)cc1C(C)C	4.38 µM
8) N#Cc1c(-c2ccc(Cl)cc2)c(-c2ccc(Cl)cc2)nn(CCOC(=O)CCC(=O)O)c1=O	47.7 µM

Now consider the entry below.
Lookup: Fill blank: measured TGI of the compound Cc1ccc(NC(=O)COC(=O)c2cccc3c(=O)c4ccccc4[nH]c23)cc1 is ____.
Found: > 100 µM

###

Test system: MDA-MB-231 breast
Test: NCI tumour cell line growth inhibition, 48 h
measure: log10(TGI) (log10 of the value in µM)
// stored as log10 of TGI expressed in µM

Record excerpt, results attached:
1. COc1cc(/C=C/c2sc3ccccc3[n+]2C)ccc1N(C)C	1.37
2. COc1cc(C2c3[nH]c4ccc(F)cc4c3C[C@H]3COC(=O)N23)cc(OC)c1O (some centres undefined)	1.68
3. CCN(CC)CCCNc1nc2ccccc2c2c(=O)c3cc(Cl)ccc3sc12	0.51
4. COc1cc(C(=O)N2CCN(c3ccccc3OC)CC2)c(N)cc1OCc1ccccc1	1.63
5. O=C(Nc1ccc(Cl)cc1)c1ccc([N+](=O)[O-])o1	1.67
6. Cc1cc(NCCCCNc2ccnc3cc(Cl)ccc23)nc(Nc2ccc(C(=O)N3CCCC3)cc2)n1	0.71
7. CC(C)/C(Cl)=N\OC(=O)Nc1ccc(F)c([N+](=O)[O-])c1	1.46
8. O=c1oc2cc(O)ccc2cc1-c1nc2ccccc2s1	1.73

Lookup: What does the data say about its log10(TGI)? Entry: C=C(CN(C)C)C(=O)c1cc(C)ccc1C
Found: 1.56

Lookup: Entry under review: NC(N)=N/N=C(/c1ccccc1)c1ccc(Cl)cc1 . Reported log10(TGI)?
Found: 1.75

Lookup: Which measured log10(TGI) value corresponds to COc1cc(C2CC(c3ccc(Nc4ccnc5cc(Cl)ccc45)cc3)=NN2C=O)cc(OC)c1OC (centres undefined) ?
Found: 1.73

Lookup: Entry CCCCCCCCCCCCSC(=NC)NC has what log10(TGI)?
Found: 0.62

Lookup: Reported log10(TGI) for O=C1/C(=C/c2ccc(Cl)cc2)CN(Cc2cn(CCNc3ccnc4cc(Cl)ccc34)nn2)C/C1=C\c1ccc(Cl)cc1 : what is it?
Found: -0.02

Lookup: Which log10(TGI) value is on record for O[C@@H]1CCCN1Cc1cc2cc3c(cc2c2cc(OCc4ccccc4)ccc12)OCO3 ?
Found: 0.75

Lookup: Look up log10(TGI) for this compound: C=CCOC(=O)CCCCCCCCCCCCCCCOC(=O)c1c(CCC[C@@H](C)O[Si](C)(C)C(C)(C)C)nc(=O)n2c1CC[C@H]2CC1(CC/C=C\[C@H](CC)O[Si](C(C)C)(C(C)C)C(C)C)OCCO1
Found: 1.73

Lookup: Can you look up the measured log10(TGI) of O=c1oc2ccc(F)cc2c(=O)n1-c1ccc(Cl)cc1F for me?
Found: 0.80

Lookup: Report log10(TGI) for Oc1ccc2ccccc2c1C(c1ccc(Cl)cc1)c1c(O)ccc2ccccc12 please.
Found: 0.97

Lookup: Requested field: log10(TGI). Item: CC(=O)[O-].[Ni].c1ccc(/C(=N\Nc2ccccn2)c2ccccn2)cc1
Found: 1.36

Lookup: Fill in the blank: the reported log10(TGI) of COc1ccc(N=Nc2c(C)c(C#N)c(=S)n(C3OC(COC(C)=O)C(OC(C)=O)C(OC(C)=O)C3OC(C)=O)c2-c2ccccc2)cc1 (centres undefined) is ____.
Found: 1.35

###

Test system: COLO 205 colon
Test: NCI tumour cell line growth inhibition, 48 h; in the data active means GI50 below about 0.43 µM; inactive means the rest
Select the matching outcome among active, inactive

1) O=C(Nc1cccc([N+](=O)[O-])c1)c1ccc2ccccc2c1O	inactive
2) CN1C(=O)c2cc([N+](=O)[O-])ccc2[C@H]2C(=O)c3cc4c(cc3[C@H]21)OCO4	active
3) COc1cc(OC)c2cc(C(=O)O)c(=O)oc2c1	inactive

Next, consider the following compound.
Lookup: Status in this test for O=C1c2cccc3cccc(c23)C(=O)N1CCCCN1CCN(CCCCOc2ccc(-c3nc4ccc(N5CCOCC5)cc4[nH]3)cc2)CC1 ?
Found: inactive

Reference for the values: PubChem BioAssay (NCI)
